# System Tested: NAD-dependent protein deacetylase sirtuin-1 (Homo sapiens)
# Sequence (Q96EB6 whole entry, the tested form may be a part): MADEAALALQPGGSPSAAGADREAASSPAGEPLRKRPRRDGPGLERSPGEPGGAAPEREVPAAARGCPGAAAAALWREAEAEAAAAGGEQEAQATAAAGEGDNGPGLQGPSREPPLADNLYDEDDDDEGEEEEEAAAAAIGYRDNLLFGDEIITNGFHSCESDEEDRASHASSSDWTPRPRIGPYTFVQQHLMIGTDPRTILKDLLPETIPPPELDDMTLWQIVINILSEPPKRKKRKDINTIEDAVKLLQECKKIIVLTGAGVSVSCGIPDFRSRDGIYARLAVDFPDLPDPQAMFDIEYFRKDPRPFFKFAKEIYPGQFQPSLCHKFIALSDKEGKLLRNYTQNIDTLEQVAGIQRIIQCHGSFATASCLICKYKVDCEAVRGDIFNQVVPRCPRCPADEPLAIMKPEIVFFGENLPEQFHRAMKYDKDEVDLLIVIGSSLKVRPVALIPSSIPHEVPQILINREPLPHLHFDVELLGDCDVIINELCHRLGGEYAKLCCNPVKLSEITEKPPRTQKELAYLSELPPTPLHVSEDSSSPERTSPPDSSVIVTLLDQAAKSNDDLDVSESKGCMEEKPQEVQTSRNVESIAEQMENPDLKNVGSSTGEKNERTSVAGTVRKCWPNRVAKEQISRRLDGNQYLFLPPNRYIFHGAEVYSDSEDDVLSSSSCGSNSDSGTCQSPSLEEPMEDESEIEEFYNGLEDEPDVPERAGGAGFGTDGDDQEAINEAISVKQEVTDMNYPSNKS
# Test Name: Inhibition of human recombinant N-terminal GST-tagged SIRT1 (193 to 741 amino acid) after 45 mins by spectrophotometry relative to control
We begin with a simple list: items and their reported IC50.
Write it as a number; the unit µM goes unstated.

Please review the entries below; each comes with its answer.
CCOC(=O)c1ccc2c(c1)nc(-c1ccc(C)cc1)n2-c1ccccc1 = 79.9
CCOC(=O)c1ccc2c(c1)nc(-c1ccc(N(C)C)cc1)n2CCCN1CCCC1=O = 60.3

Consider now this further compound.
Just so you know, measured IC50 for `CCOC(=O)c1ccc2c(c1)nc(-c1ccc(N(C)C)cc1)n2-c1ccccc1` came out at 49.1
